system: synthetic oligopeptides; format: biochemical; conditions: substrate MADY (SEQ ID NO:7), 4 mM oligopeptide, pH 7.5, 37° C.

# MOLECULE, Specific activity (unit/mg)
rows = [
    ("MetAP-YMQ: wild type E. coli Met aminopeptidase (SEQ ID NO:1) (protein, listed as Escherichia coli) MAISIKTPEDIEKMRVAGRLAAEVLEMIEPYVKPGVSTGELDRICNDYIVNEQHAVSACLGYHGYPKSVCISINEVVCHGIPDDAKLLKDGDIVNIDVTVIKDGFHGDTSKMFIVGKPTIMGERLCRITQESLYLALRMVKPGINLREIGAAIQKFVEAEGFSVVREYCGHGIGRGFHEEPQVLHYDSRETNVVLKPGMTFTIEPMVNAGKKEIRTMKDGWTVKTKDRSLSAQYEHTIVVTDNGCEILTLRKDDTIPAIISHDE", 138),
    ("MetAP-*TG (protein) AISIKTPEDIEKMRVAGRLAAEVLEMIEPYVKPGVSTGELDRICNDYIVNEQHAVSACLGYHGYPKSVCISINEVVCHGIPDDAKLLKDGDIVNIDVTVIKDGFHGDTSKMFIVGKPTIMGERLCRITQESLYLALRMVKPGINLREIGAAIQKFVEAEGFSVVREYCGHGIGRGFHEEPQVLHYDSRETNVVLKPGMTFTIEPTVNAGKKEIRTMKDGWTVKTKDRSLSAGYEHTIVVTDNGCEILTLRKDDTIPAIISHDE", 72),
]
